Source of measurements: ChEMBL document CHEMBL1128268

measured_target: Substance-P receptor (Homo sapiens, UniProt P25103)
Sequence (P25103 whole entry): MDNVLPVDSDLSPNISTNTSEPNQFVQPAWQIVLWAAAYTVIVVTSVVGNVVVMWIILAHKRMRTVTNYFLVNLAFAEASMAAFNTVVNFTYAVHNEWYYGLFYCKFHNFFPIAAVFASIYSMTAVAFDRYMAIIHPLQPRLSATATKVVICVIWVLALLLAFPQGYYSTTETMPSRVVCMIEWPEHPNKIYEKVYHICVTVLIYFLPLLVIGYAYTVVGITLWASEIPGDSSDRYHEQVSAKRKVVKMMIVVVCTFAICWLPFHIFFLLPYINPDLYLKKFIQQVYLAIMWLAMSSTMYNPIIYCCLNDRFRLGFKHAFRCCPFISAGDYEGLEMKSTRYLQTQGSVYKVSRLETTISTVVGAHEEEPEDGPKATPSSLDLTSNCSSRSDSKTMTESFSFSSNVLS
test_name: Binding affinity at human Tachykinin receptor 1 expressed in CHO cells by [125 I]Trp8-substance P displacement.
reported_endpoint: IC50 (nM)

(I) O=C1OC(Cc2c[nH]c3ccccc23)C(=O)N1Cc1cc(Cl)cc(Cl)c1 (stereo unspecified)
(II) O=C1OC(Cc2c[nH]c3ccccc23)C(=O)N1Cc1cc(C(F)(F)F)cc(C(F)(F)F)c1 (single isomer, unassigned; (-))
(III) CN1C(=O)N(Cc2cc(C(F)(F)F)cc(C(F)(F)F)c2)C(=O)C1Cc1c[nH]c2ccccc12 (stereo unspecified)
(IV) O=C1OC(Cc2c[nH]c3ccccc23)C(=O)N1Cc1cc(F)cc(F)c1 (stereo unspecified)
Lab note: rank above entries, IC50 ascending. Use the labels to give the ranking in the order requested. II, III, I, IV

(I) O=C1CC(Cc2c[nH]c3ccccc23)C(=O)N1Cc1cc(C(F)(F)F)cc(C(F)(F)F)c1 (stereo unspecified)
(II) O=C1OC(Cc2c[nH]c3ccccc23)C(=O)N1Cc1cc(C(F)(F)F)cc(C(F)(F)F)c1 (racemic)
(III) CC1(Cc2c[nH]c3ccccc23)OC(=O)N(Cc2cc(C(F)(F)F)cc(C(F)(F)F)c2)C1=O (stereo unspecified)
(IV) Cc1cc(C)cc(CN2C(=O)OC(Cc3c[nH]c4ccccc34)C2=O)c1 (stereo unspecified)
(V) O=C1OC(Cc2c[nH]c3ccccc23)C(=O)N1Cc1cccc(C(F)(F)F)c1 (stereo unspecified)
Order these by IC50, descending, and give the full ranking. Answer by listing the labels in the order asked for. V, IV, I, II, III
